We begin with a simple list: items and their reported log10 of IC50.
- Experimental Target: UniProt O43613
- Sequence (O43613 whole entry): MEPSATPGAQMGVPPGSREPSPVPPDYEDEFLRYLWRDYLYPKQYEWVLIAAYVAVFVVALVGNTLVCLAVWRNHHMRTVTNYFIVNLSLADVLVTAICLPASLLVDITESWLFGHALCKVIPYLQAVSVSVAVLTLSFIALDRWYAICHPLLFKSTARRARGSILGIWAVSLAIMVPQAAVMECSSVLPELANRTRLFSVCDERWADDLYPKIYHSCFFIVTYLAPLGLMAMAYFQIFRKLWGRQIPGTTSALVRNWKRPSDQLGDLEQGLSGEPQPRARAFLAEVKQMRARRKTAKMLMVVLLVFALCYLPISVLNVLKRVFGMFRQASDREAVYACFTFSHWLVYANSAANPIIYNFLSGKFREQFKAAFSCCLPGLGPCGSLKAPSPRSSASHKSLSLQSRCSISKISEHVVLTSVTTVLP
- Test: Intracellular calcium measurement (FLIPR), CHO cells expressing human orexin-1 receptor, 3 nM orexin-A
- Format: cell-based
- Test Parameters: CHO cells expressing human orexin-1 receptor, FLIPR, 3 nM orexin-A; geometric mean if determined several times; read-out: IC50 OX1
- Experimental: In Vitro Assay: Intracellular Calcium Measurements: […] Within the Fluorescent Imaging Plate Reader (FLIPR Tetra, Molecular Devices), antagonists are added to the plate in a volume of 10 μL/well, incubated for 120 min and finally 10 μL/well of agonist is added. Fluorescence is measured for each well at 1 second intervals, and the height of each fluorescence peak is compared to the height of the fluorescence peak induced by 3 nM orexin-A with vehicle in place of antagonist. […]
// units: nM (pre-log); metric: IC50; scale: log10

{"Molecule": "Cc1ccc(-n2nccn2)c(C(=O)N2CCC[C@H]2c2cc(-c3cccc(Cl)c3C)no2)c1 [compound 424]", "Experimental Target": "UniProt O43613", "log10 of IC50": 0.90}

Continue with the molecule presented below.
Prompt line: Look up UniProt O43613 data: log10 of IC50 of COc1ccccc1-c1nnc([C@@H]2CCCN2C(=O)c2ccc(C)cc2-n2nccn2)[nH]1 [compound 471] , then report it.
Response line: 1.69
